Tested on: CCRF-CEM
Assay: Cytotoxicity against human CCRF-CEM cells assessed as growth inhibition after 3 days by alamar blue assay
Assay type: functional, cell-based
Details: 72 h
pIC50: −log10 of the molar value.
Assay metric: pIC50

1. CCCCCCCCC/C(C)=C\C(=O)NCCc1ccc(O)cc1	5.20

* * *

System: K562
Assay: Cytotoxicity against human K562 cells assessed as growth inhibition after 3 days by alamar blue assay
Type: functional, cell-based
Details: K562, 72 h
Assay metric: IC50 (µM)

1. C=C(C)C(CCC(C)=O)C[C@@H]1O[C@@]1(C)C/C=C/C(C)=O (some centres not stated)	8.6
2. C=C(C)[C@@H]1CCC(=C)[C@@H](OO)CCC(=C)[C@H]2CC[C@@](C)(O2)[C@@H](O)C1	9.2
